Tested target: CaBzz1-D1
Run description: SPOT peptide array binding signal intensity (averaged, normalized) (arbitrary units (background-subtracted, floor 0; scale differs between SH3 domains)); higher = stronger binding of the SH3 domain to the peptide
# SPOT peptide array binding signal intensity values compiled below
Observation type: SPOT peptide array binding signal intensity

> print(dat)
             binder  lt.gt.eq  reported
 1  IRMPSNPALPKKLLN         =       314
 2  KDKSRPPRPPPKPLH         =      3930
 3  NPTKSPPPPPSPSTM         =      3240
 4  NPLPKEPRLPKRKVA         =       122
 5  FPPKRKPLLRPQRSD         =       257
 6  VLRFLGFPLPIFEKG         ≤         0
 7  LLRRTIPKRPFYHVL         =      71.5
 8  GDHPKGPPPPPPPDE         =      3200
 9  QLMKNLPKIPLLNDI         =       222
10  RKNRAPPQRPRFNRD         =      1760
11  NFLRLLIGLPSQNEL         =        39
12  PAPPPPPRASRPTPN         =       934
13  QTREPNEPPPPSPAM         =         8
14  IPSRPAPKPPSSASA         =      1550
15  IAPIPMPKPNPTHIS         ≤         0
